ASSAY PROCEDURE: reversal of MRP1-mediated doxorubicin resistance, pilot screen, H69AR cells, doxorubicin co-treatment (AID 601)
CONDITION: H69AR cells + 2 uM doxorubicin, CellTiter-Glo, 72 h; at 10 µM; stronger effect = higher value
Quick reference: differential viability (reversal) of the listed items.
Answer with a number only, understood to be in %.

Use these answered entries as a reference point.
# COMPOUND, MEASURE NAME, OBSERVED VALUE
data = [
    ("CCOc1ccc(-c2nnn(CCC(=O)O)n2)cc1OC", "differential viability (reversal)", 12.1),
    ("Cc1ccc2oc(-c3ccccc3C(=O)O)cc(=O)c2c1", "differential viability (reversal)", -2.34),
    ("CC(=O)Nn1c(C)nnc1-n1nc(C)cc1C", "differential viability (reversal)", 4.38),
    ("Cc1ccc(-c2nn(C)c(=O)c3ccccc23)cc1S(=O)(=O)NCCN1CCOCC1", "differential viability (reversal)", 5.54),
    ("CCCn1c(C)nc2c(c1=O)c1nc3ccccc3nc1n2CCc1ccccc1", "differential viability (reversal)", -3.46),
    ("Cc1c(C(=O)O)sc2ncn(C)c(=O)c12", "differential viability (reversal)", 11.7),
]

// recorded differential viability (reversal) for "c1ccc2c(CC3=NCCN3)cccc2c1" : 14.9

// recorded differential viability (reversal) for "O=C(Nc1ccc(N2CCN(Cc3ccccc3Cl)CC2)cc1)c1cccnc1" : 5.44

// recorded differential viability (reversal) for COc1ccccc1N1CCN(c2nc3ccccc3nc2C(C#N)C(=O)OC(C)C)CC1 (stereo not given) : 3.12

// recorded differential viability (reversal) for "Cn1c(-c2ccccc2)cc(=O)c2ccccc21" : -6.83

---

ASSAY PROCEDURE: growth suppression of PTEN-deleted HCT116, pilot screen, cell-based, HCT116 clonal line, CellTiter-Glo (AID 824);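 further: 0% = 20 µM Hyamine control and 100% = vehicle cell control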
CONDITION: 60 h, at 10 µM, stronger effect = lower value
Records with an inconclusive call do not appear.
Quick reference: viability of the listed items.
Answer with a number only, understood to be in %.

Use these answered entries as a reference point.
# SMILES TEXT, UNIT OF MEASURE, OBSERVED VALUE
measured = [
    ("O=C1c2ccccc2C(=O)N1CSc1ncccn1", "%", 89.7),
    ("Cc1ccc2oc(=O)c3cnn(CC(=O)NC4CCN(Cc5ccccc5)CC4)c3c2c1", "%", 92),
    ("N#Cc1ccc(Sc2nc3ccccc3[nH]2)cc1C#N", "%", 89.8),
]

// recorded viability for "Cn1nnnc1SCC(=O)c1cccs1" : 90.9

---

ASSAY PROCEDURE: RAM signaling pathway blockade in yeast – S. cerevisiae, Pdr1DBD-CYC8 efflux-inhibited sensitized strain, primary screen (AID 1298);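 further: 0% = DMSO untreated cells without growth and 100% = 10 µM 1-NA-PP1 full growth; higher means more yeast growth rescued from 5-FOA killing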
CONDITION: S. cerevisiae cbk1-as DSE1-URA3 strain, 5-FOA growth OD615, 2 d; at 50 µM; stronger effect = higher value
Quick reference: RAM network inhibition of the listed items.
Answer with a number only, understood to be in %.

# COMPOUND, RAM network inhibition [%]
measured = [
    ("O=C(NCc1ccco1)c1ccc(Br)c(S(=O)(=O)N2CCCCC2)c1", 4.59),
]

// recorded RAM network inhibition for "COc1cc(OC)cc(-c2cc3nc(C)c(CCC(=O)O)c(C)n3n2)c1" : 1.56

// recorded RAM network inhibition for CC1Cc2ccccc2N1C(=O)CCS(=O)(=O)c1cccc2nonc12 (centres undefined) : 3.48

// recorded RAM network inhibition for CCOC(=O)C(C)Sc1nnc(Cc2cc(=O)[nH]c(=O)[nH]2)n1-c1ccc(OCC)cc1 (centres undefined) : 2.89

---

Quick reference: viability increase of the listed items.
ASSAY PROCEDURE: viability gain of MRP-1-high H69AR cells under doxorubicin, pilot screen, MRP-1 activator project, CellTiter-Glo, duplicate (AID 807);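 further: compound pretreatment 18-22 h then 72 h combined with doxorubicin; 0% = doxorubicin alone and 100% = vehicle without doxorubicin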
CONDITION: H69AR viability with doxorubicin, CellTiter-Glo luminescence; at 10 µM; stronger effect = higher value
Answer with a number only, understood to be in %.

// recorded viability increase for "Cn1ccnc1-c1nc2ccccc2[nH]c1=O" : -1.95

// recorded viability increase for "CCOC(=O)CCc1c(C)c2c(C)nn(-c3ccccc3)c2[nH]c1=O" : -1.19

// recorded viability increase for "S=c1nc(-c2ccccc2)n(CCCN2CCOCC2)c2c1CCCC2" : -4.35

// recorded viability increase for "CCOC(=O)c1[nH]c(C)c(C(=O)Nc2ccc(C)c(C)c2)c1C" : -4.91

// recorded viability increase for "COc1cc2[nH]c(=O)n(CCCC(=O)NCCc3ccccc3)c(=O)c2cc1OC" : -3.37

---

ASSAY PROCEDURE: growth suppression of yeast trafficking mutant, preliminary HTS, modulators of trafficking downstream of Golgi apparatus project, 1536-format plate, OD 615 nm (AID 637)
CONDITION: yeast transport mutant growth, absorbance 615 nm, 18 h; stronger effect = higher value
Quick reference: inhibition of the listed items.
Answer with a number only, understood to be in %.

# MOLECULE, inhibition / %
rows = [
    ("c1ccc(CCn2nnnc2C(c2cccs2)N2CCOCC2)cc1 (stereo not drawn)", -1.59),
    ("O=C(CSc1nc2ccsc2c(=O)n1NC(=O)c1ccccc1)Nc1nccs1", -2.83),
    ("CCC(C)(C)n1nnnc1C(c1cc2cc(OC)ccc2[nH]c1=O)N1CCc2ccccc21 (stereo not drawn)", -4.59),
    ("CCN(CC)S(=O)(=O)c1ccc(NC2CCCc3ccccc32)nc1 (stereo not drawn)", -3.17),
    ("CCn1c(SC)nc2c(c1=O)SC(C)C2 (stereo not drawn)", 1.8),
]

// recorded inhibition for "Cc1ccc(C)c(-c2nc3cc(N)ccc3o2)c1" : -6.03

// recorded inhibition for "O=C(COC(=O)CSc1nnc(-c2ccc(Cl)cc2)o1)NCc1ccc2c(c1)OCO2" : 0.79

// recorded inhibition for CCOC(=O)C(NC(C)=O)(Nc1ccc(S(=O)(=O)Nc2nccs2)cc1)C(F)(F)F (stereo not drawn) : 8.57

---

Quick reference: inhibition of the listed items.
ASSAY PROCEDURE: 384-well plate pilot, post-Golgi transport modulator project, inhibition of yeast transport mutant growth (AID 636)
CONDITION: absorbance 615 nm, about 18 h, stronger effect = higher value
Answer with a number only, understood to be in %.

Use these answered entries as a reference point.
# MOLECULE, MEASURE NAME, OBSERVED VALUE
rows = [
    ("COc1ccc(C(=O)N(CCCO)Cc2cc3c(C)ccc(C)c3[nH]c2=O)cc1OC", "inhibition", -5.06),
    ("COc1ccc(-c2ccc(CCC(=O)O)n2NC(=O)c2cccs2)cc1", "inhibition", -2.76),
    ("Cc1cc(C)n(C(=O)CNC(=O)C2COc3ccccc3O2)n1 (centres undefined)", "inhibition", -4.74),
    ("CCSc1cc(C2C(C(=O)OC)=C(C)NC3=C2C(=O)CCC3)c(C)o1 (centres undefined)", "inhibition", -6.8),
]

// recorded inhibition for CC(O)c1nc2ccccc2n1C1CCCCC1 (centres undefined) : -1.18

// recorded inhibition for "Cc1ccc(-n2ncc(C(=O)N3CCc4ccccc4C3)c2NC(=O)c2ccco2)cc1C" : -0.13

// recorded inhibition for "O=C(CCCC(=O)N(CC(=O)NC1CCCCC1)Cc1ccc2c(c1)OCO2)Nc1ccccn1" : -6.18

---

Quick reference: viability of the listed items.
ASSAY PROCEDURE: reversal of MRP1-mediated doxorubicin resistance, pilot screen, H69AR cells, doxorubicin co-treatment (AID 601)
CONDITION: H69AR cells + 2 uM doxorubicin, CellTiter-Glo, 72 h; measured here: viability with 2 uM doxorubicin; at 10 µM; stronger effect = lower value
Write down the value, and be sure its unit follows.

Use these answered entries as a reference point.
# COMPOUND, viability
data = [
    ("Cc1ccc(C)c(NC(=O)CC(NCCCN2CCOCC2)C(=O)O)c1 (configuration not stated)", "96.8%"),
    ("COC(=O)c1ccc(CSc2nc(-c3ccc(OC)cc3)nc3c2c(=O)n(C)c(=O)n3C)o1", "89%"),
    ("COc1ccc(Cc2nnc(NC(=O)Cc3cccs3)s2)cc1", "101%"),
    ("CCOc1cccc(/C(O)=C2/C(=O)C(=O)N(CCN3CCOCC3)C2c2cccnc2)c1 (configuration not stated)", "98.2%"),
    ("Cn1c(=O)c2[nH]c(NCC3CCCO3)nc2n(-c2ccccc2)c1=O (configuration not stated)", "91.5%"),
    ("CC(C)(C)C(=O)Cn1c[n+](N)cn1", "92.4%"),
    ("O=C(c1cccnc1)N1CCc2ccccc21", "111%"),
    ("CCOC(=O)N1CCN(C(=O)c2ccc3nc4cc(Cl)ccc4c(=O)n3c2)CC1", "88.8%"),
    ("COc1ccccc1N1CCN(C(=O)CCNS(=O)(=O)c2ccc3c(c2)CCC(=O)N3)CC1", "90.4%"),
    ("COc1ccc(-c2noc(-c3ccccc3C(=O)NCc3ccco3)n2)cc1", "94.9%"),
]

// recorded viability for "O=C(CCc1nc2ccccc2[nH]1)Nc1ccc2c(c1)OCO2" : 93.1%

// recorded viability for "Cc1ccc(NC(=O)CCC(=O)O)cc1F" : 91.8%
